B1: glmS ribozyme (parent)
chain: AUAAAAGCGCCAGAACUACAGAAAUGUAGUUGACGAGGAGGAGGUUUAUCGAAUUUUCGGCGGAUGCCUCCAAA

- Variants of: B1
- EXPERIMENT DESCRIPTION: self-cleavage kobs at 160 uM GlcN6P; higher = faster cleavage; RNA array
- ASSAY SETUP: with glucosamine-6-phosphate
Fewer inactive variants are shown than the library holds.
READOUT: self-cleavage kobs at 160 uM GlcN6P (s⁻¹)
Only the number, expressed in s⁻¹, is required.

{"columns": ["QUERY SEQUENCE", "DISPLAY UNIT", "self-cleavage kobs at 160 uM GlcN6P"],
 "data": [
  ["AUAAAAGCGCCAGAAGUACAGAAAUGUAGUUGACGAGGAGGAGGUUUAUCGAAAUUUCGGCGGAUGCCUCCAAA [C16G U54A]", "s⁻¹", 0.000487],
  ["AUAAAAGCGCCAGAACUACAGAAAUGUAGUGGACGAGGAAGAGGUUUAUCGAAUUUUCGGCGGAUGCCUCCAAA [U31G G40A]", "s⁻¹", 0.000269],
  ["AUAAAAGCGCCAGAACUACAGAAAUGUAGUUGACGAGGAGGAGGUUUAUCGGAUUUUCGGCGGAUGCCUUCAAA [A52G C70U]", "s⁻¹", 0.000108],
  ["AUAAAAGCGCCAGAUCUACAGAAAUGUAGUUGACGAGGAGGAGGAUUAUCGAAUUUUCGGCGGAUGCCUCCAAA [A15U U45A]", "s⁻¹", 0.000772],
  ["AUAAAAGCGCCAUAACUACAGAAAUGUAGUUGACGAGGAGGAGGAUUAUCGAAUUUUCGGCGGAUGCCUCCAAA [G13U U45A]", "s⁻¹", 0.000142],
  ["AUAAAAGCGCCAGAACUACAGAAAUGUAGUUGACGAGGACGAGGUUUAUCGAAUUAUCGGCGGAUGCCUCCAAA [G40C U56A]", "s⁻¹", 0.000154]
]}

# input Consider the variant shown here: AUAAAAGCGCCAGAAUUACAGAAAUGUAGUUGACGAGGAGGAGGUUUAUCGAAUUUUCGGCGGACGCCUCCAAA [C16U U65C] What is its recorded self-cleavage kobs at 160 uM GlcN6P?
# output 8.27e-05

# input Consider the variant shown here: AUAAAAGCGCCAGAACUACAGAAAUGUAGUUGACGUGGAGGAGGUUAAUCGAAUUUUCGGCGGAUUCCUGUAAA [A36U U47A G66U C70G C71U] What is its recorded self-cleavage kobs at 160 uM GlcN6P?
# output 4.68e-05

# input Consider the variant shown here: AAAAAAGCGCCAGAACUACAGAAAUGUAUUUGACGAGGAGGAGGUUUAUCGAAUUUUCGGCGGAUGCCUCCAAA [U2A G29U] What is its recorded self-cleavage kobs at 160 uM GlcN6P?
# output 0.000569

# input Consider the variant shown here: AUAAAAGCGCCUGAACUACAGAAAUGUAGUUGACGAGGAGGAGGUUUAUCGAAUUAUCGGCGGAGGCCUCCAAA [A12U U56A U65G] What is its recorded self-cleavage kobs at 160 uM GlcN6P?
# output 0.00018
